EXPERIMENT_DESCRIPTION: Solubility assay (kinetic solubility, PBS pH 7)
Format: physicochemical
CONDITION_SET: pH 7, aqueous buffer, kinetic from dmso stock, pH 7, PBS; read-out: Solubility
Positions of bridges follow the written chain, without caps; N, C: chain ends. Non-standard residues stand in square brackets, D forms with d. Residues, ends and D or L forms follow the SMILES beside them. Lys(N3) = [N-]=[N+]=NCCCC[C@H](N)C(=O)O; R8 = C=CCCCCCC[C@@](C)(N)C(=O)O; Cba = N[C@@H](CC1CCC1)C(=O)O; S5 = C=CCCC[C@](C)(N)C(=O)O; βAla = NCCC(=O)O; Sar = CNCC(=O)O
For each record, write down the corresponding solubility kinetic.

Respond only with solubility kinetic recorded for CC(=O)N[C@@H](CCCNC(=N)N)C(=O)N[C@H](C(=O)N[C@@H](Cc1ccccc1)C(=O)N[C@]1(C)CCCCCCC=CCCC[C@@](C)(C(=O)N[C@@H](CO)C(=O)N[C@@H](C)C(=O)N[C@@H](C)C(N)=O)NC(=O)[C@H](CC2CCC2)NC(=O)[C@H](CC(C)C)NC(=O)[C@H](CCC(N)=O)NC(=O)[C@H](Cc2c[nH]c3ccccc23)NC(=O)[C@H](Cc2ccc(O)cc2)NC(=O)[C@H](CCC(=O)O)NC1=O)[C@@H](C)O [MP-191] (Ac-RTF[R8]EYWQL[Cba][S5]SAA-NH2; staple 4-11) 3 µM

Give the reported solubility kinetic for this molecule. CC(=O)N[C@@H](CCCCN=[N+]=[N-])C(=O)NCCC(=O)N[C@@H](CC(C)C)C(=O)N[C@H](C(=O)N[C@@H](Cc1ccccc1)C(=O)N[C@]1(C)CCCCCCC=CCCC[C@@](C)(C(=O)N[C@@H](CO)C(=O)N[C@@H](C)C(=O)N[C@@H](C)C(N)=O)NC(=O)[C@H](CC2CCC2)NC(=O)[C@H](CCC(N)=O)NC(=O)[C@H](C)NC(=O)[C@H](CCC(=O)O)NC(=O)[C@H](Cc2ccc(O)cc2)NC(=O)[C@H](CCC(=O)O)NC1=O)[C@@H](C)O [MP-956] 175 µM

Answer with the recorded solubility kinetic of CC(=O)N[C@@H](CCCCN=[N+]=[N-])C(=O)NCCC(=O)NC(C)(C)C(=O)N[C@H](C(=O)N[C@@H](Cc1ccccc1)C(=O)N[C@]1(C)CCCCCCC=CCCC[C@@](C)(C(=O)N[C@@H](CO)C(=O)N[C@@H](C)C(=O)N[C@@H](C)C(N)=O)NC(=O)[C@H](CC2CCC2)NC(=O)[C@H](CCC(N)=O)NC(=O)[C@H](C)NC(=O)[C@H](Cc2c[nH]c3ccccc23)NC(=O)[C@H](Cc2ccc(O)cc2)NC(=O)[C@H](CCC(=O)O)NC1=O)[C@@H](C)O [MP-168] only. 79.5 µM

Please report solubility kinetic for the following molecule: CC(=O)N[C@@H](CCCCN=[N+]=[N-])C(=O)NCCC(=O)N[C@@H](CC(N)=O)C(=O)N[C@H](C(=O)N[C@@H](Cc1ccccc1)C(=O)N[C@]1(C)CCCCCCC=CCCC[C@@](C)(C(=O)N[C@@H](CO)C(=O)N[C@@H](C)C(=O)N[C@@H](C)C(N)=O)NC(=O)[C@H](CC2CCC2)NC(=O)[C@H](CCC(N)=O)NC(=O)[C@H](CC(N)=O)NC(=O)[C@H](Cc2c[nH]c3ccccc23)NC(=O)[C@H](Cc2ccc(O)cc2)NC(=O)[C@H](CC(N)=O)NC1=O)[C@@H](C)O [MP-497] 5 µM

Entry CC(=O)N[C@@H](CCCCN=[N+]=[N-])C(=O)NCCC(=O)N[C@@H](CC(C)C)C(=O)N[C@H](C(=O)N[C@@H](Cc1ccccc1)C(=O)N[C@]1(C)CCCCCCC=CCCC[C@@](C)(C(=O)N[C@@H](CO)C(=O)N[C@@H](C)C(=O)N(C)CC(N)=O)NC(=O)[C@H](CC2CCC2)NC(=O)[C@H](CCC(N)=O)NC(=O)[C@H](C)NC(=O)[C@H](Cc2c[nH]c3ccccc23)NC(=O)[C@H](Cc2ccc(O)cc2)NC(=O)[C@H](CCC(=O)O)NC1=O)[C@@H](C)O [MP-566] (Ac-[Lys(N3)][βAla]LTF[R8]EYWAQ[Cba][S5]SA[Sar]-NH2; staple 6-13) needs its solubility kinetic filled in; supply it. 87.5 µM
